- System: Escherichia coli
- Protocol: Activity of Escherichia coli Inhibitor-resistant beta-lactamase SHV-56
- Assay setup: JM109
Collected kcat values appear next to each entry.

Guide cases for kcat, answers given:
{"columns": ["Smiles str", "Target of assay", "Test result"],
 "data": [
  ["CO/N=C(\\C(=O)N[C@@H]1C(=O)N2C(C(=O)O)=C(CSc3nc(=O)c(O)nn3C)CS[C@H]12)c1csc(N)n1", "Escherichia coli", "< 0.01 s⁻¹"],
  ["CCN1CCN(C(=O)N[C@@H](C(=O)N[C@@H]2C(=O)N3[C@@H]2SC(C)(C)[C@@H]3C(=O)O)c2ccccc2)C(=O)C1=O", "Escherichia coli", "50 s⁻¹"]
]}

Q: Checklist item: kcat tested on Escherichia coli, entry `CC(C)(O/N=C(\C(=O)N[C@@H]1C(=O)N2C(C(=O)[O-])=C(C[n+]3ccccc3)CS[C@H]12)c1csc(N)n1)C(=O)O` , value?
Ans: < 0.01 s⁻¹

Q: Same read-out for `C[C@H]1[C@H](NC(=O)/C(=N\OC(C)(C)C(=O)O)c2csc(N)n2)C(=O)N1S(=O)(=O)O` ?
Ans: < 0.01 s⁻¹

Q: Same read-out for `CO[C@@]1(NC(=O)Cc2cccs2)C(=O)N2C(C(=O)O)=C(COC(N)=O)CS[C@@H]21` ?
Ans: < 0.01 s⁻¹

Q: Same read-out for `CO/N=C(\C(=O)N[C@@H]1C(=O)N2C(C(=O)[O-])=C(C[N+]3(C)CCCC3)CS[C@H]12)c1csc(N)n1` ?
Ans: < 0.01 s⁻¹

Q: Same read-out for `CC(=O)OCC1=C(C(=O)O)N2C(=O)[C@@H](NC(=O)Cc3cccs3)[C@H]2SC1` ?
Ans: 0.1 s⁻¹

====

- Tested on: Escherichia coli
- Protocol: Activity of Escherichia coli Inhibitor-resistant beta-lactamase SHV-56
- Assay setup: JM109
Readout kind: kcat

Guide cases for kcat, answers given:
{"columns": ["Smiles str", "Target of assay", "Readout kind", "Test result"],
 "data": [
  ["CO/N=C(\\C(=O)N[C@@H]1C(=O)N2C(C(=O)O)=C(COC(C)=O)CS[C@H]12)c1csc(N)n1", "Escherichia coli", "kcat", "< 0.01 s⁻¹"],
  ["CO/N=C(\\C(=O)N[C@@H]1C(=O)N2C(C(=O)O)=C(COC(N)=O)CS[C@H]12)c1ccco1", "Escherichia coli", "kcat", "< 0.01 s⁻¹"]
]}

Q: Given the entry `CC1(C)S[C@@H]2[C@H](NC(=O)[C@H](C(=O)O)c3ccsc3)C(=O)N2[C@H]1C(=O)O` , report its measured kcat.
Ans: 30 s⁻¹

====

- System: Escherichia coli
- Protocol: Antimicrobial activity against Escherichia coli JM109 harboring pE1MD plasmid expressing beta-lactamase SHV-56 by agar dilution method
- Type: functional
Readout kind: log10 MIC (log10 of the value in µg/mL)
Please keep in mind that the values are log10 of MIC expressed in µg/mL.

Guide cases for log10 MIC, answers given:
{"columns": ["Smiles str", "Readout kind", "Test result"],
 "data": [
  ["CC1(C)S[C@@H]2[C@H](NC(=O)[C@H](N)c3ccc(O)cc3)C(=O)N2[C@H]1C(=O)O", "log10 MIC", 3.61],
  ["CCN1CCN(C(=O)N[C@@H](C(=O)N[C@@H]2C(=O)N3[C@@H]2SC(C)(C)[C@@H]3C(=O)O)c2ccccc2)C(=O)C1=O", "log10 MIC", 1.81],
  ["CC1(C)S[C@@H]2[C@H](NC(=O)[C@H](N)c3ccccc3)C(=O)N2[C@H]1C(=O)O", "log10 MIC", 3.01],
  ["CC(=O)OCC1=C(C(=O)O)N2C(=O)[C@@H](NC(=O)Cc3cccs3)[C@H]2SC1", "log10 MIC", 0.90]
]}

Consider the record given below.
Q: Given the entry `CC1(C)S[C@@H]2[C@H](NC(=O)[C@H](C(=O)O)c3ccsc3)C(=O)N2[C@H]1C(=O)O` , report its measured log10 MIC.
Ans: 3.31
